Tested on: 415267-285-R-J2-PDC complex spheroid viability
assayInfo: Anticancer human tumor 415267-285-R-J2-PDC patient-derived breast carcinoma cell line growth inhibition [POLQ]
conditionNotes: curve of first compound; second compound 0.0316 µM
pIC50: −log10 of the molar value.
Give measured pIC50 for each item. Keep answers brief.

[[record]]
compound = "COc1cccc2c1C(=O)c1c(O)c3c(c(O)c1C2=O)CC(O)(C(=O)CO)CC3OC1CC(N)C(O)C(C)O1 (stereo unspecified) + COC1C(OC(N)=O)C(O)C(Oc2ccc3c(O)c(NC(=O)c4ccc(O)c(CC=C(C)C)c4)c(=O)oc3c2C)OC1(C)C"
quantitymeasured = "pIC50"
result = 7.35

[[record]]
compound = "CNCc1ccc(-c2[nH]c3cc(F)cc4c3c2CCNC4=O)cc1 + Cc1cccc(N(C)C(=O)C2C(O)CCN2c2nc(C)cc(C(F)(F)F)c2C#N)c1"
quantitymeasured = "pIC50"
result = "< 5.00"

[[record]]
compound = "CNCc1ccc(-c2[nH]c3cc(F)cc4c3c2CCNC4=O)cc1 + COC1C(OC(N)=O)C(O)C(Oc2ccc3c(O)c(NC(=O)c4ccc(O)c(CC=C(C)C)c4)c(=O)oc3c2C)OC1(C)C"
quantitymeasured = "pIC50"
result = "< 5.00"

[[record]]
compound = "COc1ccc([C@@H](O)c2cc(-c3ncnc4cc(N5CCOCC5)ccc34)c(F)cc2Cl)nn1 + Cc1cccc(N(C)C(=O)C2C(O)CCN2c2nc(C)cc(C(F)(F)F)c2C#N)c1"
quantitymeasured = "pIC50"
result = 5.12

[[record]]
compound = "Nc1ccn(C2OC(CO)C(O)C2(F)F)c(=O)n1 (stereo unspecified) + Cc1cccc(N(C)C(=O)C2C(O)CCN2c2nc(C)cc(C(F)(F)F)c2C#N)c1"
quantitymeasured = "pIC50"
result = "> 7.50"


Input: Fill: pIC50 (415267-285-R-J2-PDC complex spheroid viability) for this compound Cn1ncnc1[C@H]1c2n[nH]c(=O)c3cc(F)cc(c23)N[C@@H]1c1ccc(F)cc1 + COC1C(OC(N)=O)C(O)C(Oc2ccc3c(O)c(NC(=O)c4ccc(O)c(CC=C(C)C)c4)c(=O)oc3c2C)OC1(C)C
Output: < 7.00

---

System: 415267-285-R-J2-PDC complex spheroid viability
assayInfo: Anticancer human tumor 415267-285-R-J2-PDC cell line growth inhibition [POLQ];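 also: spheroids exposed to compounds for one week before readout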;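 as to viability, T/C: luminescence used as stand-in measure of viable cells; 100% = DMSO vehicle control viability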
conditionNotes: second compound 0.0316 µM; first compound 1 µM; stronger effect = lower value
quantityMeasured: viability, T/C (%)
Numbers only, in %.

[[record]]
molecule = "COc1cccc(OCCCN)c1-c1cc(Nc2cnc(C#N)cn2)n[nH]1 + Cc1cccc(N(C)C(=O)C2C(O)CCN2c2nc(C)cc(C(F)(F)F)c2C#N)c1"
result = 4.04

[[record]]
molecule = "C=CC(=O)N1CCN(c2nc(=O)n(-c3c(C)ccnc3C(C)C)c3nc(-c4c(O)cccc4F)c(F)cc23)C(C)C1 (stereo not given) + COC1C(OC(N)=O)C(O)C(Oc2ccc3c(O)c(NC(=O)c4ccc(O)c(CC=C(C)C)c4)c(=O)oc3c2C)OC1(C)C"
result = 92.6

[[record]]
molecule = "CCc1c2c(nc3ccc(O)cc13)-c1cc3c(c(=O)n1C2)COC(=O)[C@]3(O)CC + Nc1ccc(C#CCN(C(=O)Cc2ncc(C(F)(F)F)cc2C(F)(F)F)c2ccc(F)cc2)nn1"
result = 1.11

[[record]]
molecule = "COc1cc(C2c3cc4c(cc3C(OC3OC5COC(C)OC5C(O)C3O)C3COC(=O)C23)OCO4)cc(OC)c1O (stereo not given) + Cc1cccc(N(C)C(=O)C2C(O)CCN2c2nc(C)cc(C(F)(F)F)c2C#N)c1"
result = 6.03


Input: State viability, T/C (415267-285-R-J2-PDC complex spheroid viability) of CCc1cc2c(N3CCc4c(cc(Cn5ccnc5)cc4-c4cn(C)nc4C(F)(F)F)C3=O)ccnc2c(OC)n1 + COC1C(OC(N)=O)C(O)C(Oc2ccc3c(O)c(NC(=O)c4ccc(O)c(CC=C(C)C)c4)c(=O)oc3c2C)OC1(C)C .
Output: 91.1

---

Tested on: 415267-285-R-J2-PDC complex spheroid viability
assayInfo: Anticancer human tumor 415267-285-R-J2-PDC cell line growth inhibition [POLQ];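 also: spheroids exposed to compounds for one week before readout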;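 as to viability, T/C: luminescence used as stand-in measure of viable cells; 100% = DMSO vehicle control viability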
conditionNotes: second compound 0.316 µM; first compound 3.16 µM; stronger effect = lower value
So basically, if viability, T/C comes in under 80% it's class 1, and if it's 80% or more it's class 0.

[[record]]
molecule = "CC1COCCN1c1cc(-c2ccnn2C)c2ccnc(-c3ccn[nH]3)c2n1 (stereo unspecified) + COC1C(OC(N)=O)C(O)C(Oc2ccc3c(O)c(NC(=O)c4ccc(O)c(CC=C(C)C)c4)c(=O)oc3c2C)OC1(C)C"
category = "class 1"

[[record]]
molecule = "C=CC(=O)N1CCN(c2nc(=O)n(-c3c(C)ccnc3C(C)C)c3nc(-c4c(O)cccc4F)c(F)cc23)C(C)C1 (stereo unspecified) + Cc1cccc(N(C)C(=O)C2C(O)CCN2c2nc(C)cc(C(F)(F)F)c2C#N)c1"
category = "class 0"

[[record]]
molecule = "O=C(Nc1ccc(O)c(NS(=O)(=O)c2ccc(F)cc2)c1)c1ccc(-c2ccccc2)cc1 + Cc1cccc(N(C)C(=O)C2C(O)CCN2c2nc(C)cc(C(F)(F)F)c2C#N)c1"
category = "class 0"


Input: Please determine if CC1COCCN1c1cc(C2(O)CC3CCC(C2)O3)c2cnn(-c3ccn[nH]3)c2n1 (stereo unspecified) + COC1C(OC(N)=O)C(O)C(Oc2ccc3c(O)c(NC(=O)c4ccc(O)c(CC=C(C)C)c4)c(=O)oc3c2C)OC1(C)C is below 80% in terms of viability, T/C.
Output: class 1

Input: Dear reviewer, please state whether O=C(c1cc(Cc2n[nH]c(=O)c3ccccc23)ccc1F)N1CCN(C(=O)C2CC2)CC1 + Nc1ccc(C#CCN(C(=O)Cc2ncc(C(F)(F)F)cc2C(F)(F)F)c2ccc(F)cc2)nn1 has viability, T/C strictly beneath 80%.
Output: class 0

---

System: 415267-285-R-J2-PDC complex spheroid viability
assayInfo: Anticancer human tumor 415267-285-R-J2-PDC cell line growth inhibition [POLQ];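 also: spheroids exposed to compounds for one week before readout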;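 as to viability, T/C: luminescence used as stand-in measure of viable cells; 100% = DMSO vehicle control viability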
conditionNotes: second compound 10 µM; first compound 0.1 µM; stronger effect = lower value
Field: label. Allowed values: y (viability, T/C < 10%) or n (viability, T/C >= 10%).

Input: # check: viability, T/C < 10% for CCCS(=O)(=O)Nc1ccc(F)c(C(=O)c2c[nH]c3ncc(-c4ccc(Cl)cc4)cc23)c1F + Cc1cccc(N(C)C(=O)C2C(O)CCN2c2nc(C)cc(C(F)(F)F)c2C#N)c1
Output: n

Input: Lab note: viability, T/C threshold 10%. Does this compound come in strictly under it? C=CCn1c(=O)c2cnc(Nc3ccc(N4CCN(C)CC4)cc3)nc2n1-c1cccc(C(C)(C)O)n1 + COC1C(OC(N)=O)C(O)C(Oc2ccc3c(O)c(NC(=O)c4ccc(O)c(CC=C(C)C)c4)c(=O)oc3c2C)OC1(C)C
Output: n

---

Test system: 415267-285-R-J2-PDC complex spheroid viability
assayInfo: Anticancer human tumor 415267-285-R-J2-PDC cell line growth inhibition [POLQ];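 also: spheroids exposed to compounds for one week before readout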;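 as to viability, T/C: luminescence used as stand-in measure of viable cells; 100% = DMSO vehicle control viability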
conditionNotes: second compound 1 µM; first compound 0.316 µM; stronger effect = lower value
quantityMeasured: viability, T/C (%)
Answers are plain numbers, in %.

// below: answered compounds
[[record]]
compound = "O=c1[nH]cc(F)c(=O)[nH]1 + COC1C(OC(N)=O)C(O)C(Oc2ccc3c(O)c(NC(=O)c4ccc(O)c(CC=C(C)C)c4)c(=O)oc3c2C)OC1(C)C"
result = 36.8

[[record]]
compound = "CCc1cc2c(N3CCc4c(cc(Cn5ccnc5)cc4-c4cn(C)nc4C(F)(F)F)C3=O)cc(C)nc2c(OC)n1 + COC1C(OC(N)=O)C(O)C(Oc2ccc3c(O)c(NC(=O)c4ccc(O)c(CC=C(C)C)c4)c(=O)oc3c2C)OC1(C)C"
result = 68.1

[[record]]
compound = "CC1COCCN1c1cc(-c2ccnn2C)c2ccnc(-c3ccn[nH]3)c2n1 (centres undefined) + Cc1cccc(N(C)C(=O)C2C(O)CCN2c2nc(C)cc(C(F)(F)F)c2C#N)c1"
result = 6.08


For every record below, what is its viability, T/C?
1. C=CC(=O)N1CCN(c2nc(=O)n(-c3c(C)ccnc3C(C)C)c3nc(-c4c(O)cccc4F)c(F)cc23)C(C)C1 (centres undefined) + Cc1cccc(N(C)C(=O)C2C(O)CCN2c2nc(C)cc(C(F)(F)F)c2C#N)c1
2. O=C(c1cc(Cc2n[nH]c(=O)c3ccccc23)ccc1F)N1CCN(C(=O)C2CC2)CC1 + Nc1ccc(C#CCN(C(=O)Cc2ncc(C(F)(F)F)cc2C(F)(F)F)c2ccc(F)cc2)nn1
3. CC(C)n1c(=O)n(C)c2cnc3cc(F)c(-c4ccc(OCCCN5CCCCC5)nc4)cc3c21 + Cc1cccc(N(C)C(=O)C2C(O)CCN2c2nc(C)cc(C(F)(F)F)c2C#N)c1
4. CCc1cc2c(N3CCc4c(cc(Cn5ccnc5)cc4-c4cn(C)nc4C(F)(F)F)C3=O)cc(C)nc2c(OC)n1 + Nc1ccc(C#CCN(C(=O)Cc2ncc(C(F)(F)F)cc2C(F)(F)F)c2ccc(F)cc2)nn1
5. CCc1cc2c(N3CCc4c(cc(Cn5ccnc5)cc4-c4cn(C)nc4C(F)(F)F)C3=O)ccnc2c(OC)n1 + COC1C(OC(N)=O)C(O)C(Oc2ccc3c(O)c(NC(=O)c4ccc(O)c(CC=C(C)C)c4)c(=O)oc3c2C)OC1(C)C
6. COc1cccc2c1C(=O)c1c(O)c3c(c(O)c1C2=O)CC(O)(C(=O)CO)CC3OC1CC(N)C(O)C(C)O1 (centres undefined) + Nc1ccc(C#CCN(C(=O)Cc2ncc(C(F)(F)F)cc2C(F)(F)F)c2ccc(F)cc2)nn1

Output:
[106, 108, 108, 101, 79.5, 3.66]
